Entries annotated with measured IC50
- system: C5aR (Homo sapiens (Human), UniProt P21730)
- Sequence (P21730 whole entry): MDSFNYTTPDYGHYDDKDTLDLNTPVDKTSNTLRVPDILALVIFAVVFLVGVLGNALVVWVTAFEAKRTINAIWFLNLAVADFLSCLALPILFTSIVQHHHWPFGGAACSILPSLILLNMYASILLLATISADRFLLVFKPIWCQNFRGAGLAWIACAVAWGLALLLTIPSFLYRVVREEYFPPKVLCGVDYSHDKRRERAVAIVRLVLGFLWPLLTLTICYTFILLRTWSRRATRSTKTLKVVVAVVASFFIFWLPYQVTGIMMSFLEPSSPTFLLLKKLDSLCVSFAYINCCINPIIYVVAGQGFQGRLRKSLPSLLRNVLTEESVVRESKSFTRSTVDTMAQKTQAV
- assay comment: Chemotaxis assay using U937 cells (C5aR mediated migration)
- recorded conditions: read-out: Mig IC50

Consider the reported IC50 for these compounds:
Cc1cccc(C)c1-n1nc2c(c1-c1ccc(CO)cc1)CN(c1ccccc1C(C)C)CC2 ... 50 to 500 nM
Cc1cccc(C)c1-n1nc2c(c1-c1ccc(N)cc1)CN(c1ccccc1C(C)C)CC2 ... 5 to 50 nM
Cc1cc(C(F)(F)F)cnc1N1CCc2nn(-c3c(C)cccc3OCC(C)C)c(-c3ccc(NC(N)=O)cc3)c2C1 ... 5 to 50 nM

Ask: Requested field: IC50. Item: Cc1cccc(C)c1-n1nc2c(c1-c1ccc(C(N)=O)cc1)CN(C(=O)OC(C)(C)C)CC2
Result: > 500 nM

###

- system: C5aR (Homo sapiens (Human), UniProt P21730)
- assay comment: Chemotaxis assay using U937 cells (C5aR mediated migration)
- recorded conditions: read-out: Mig IC50
pIC50: −log10 of the molar value.
Entries annotated with measured pIC50

Consider the reported pIC50 for these molecules:
CCC(C)(C)N1CCc2nn(-c3c(C)cccc3OCC(C)C)c(-c3ccc(NC(N)=O)c(F)c3)c2C1 ... 7.30 to 8.30
CCc1cccc(CC)c1-n1nc2c(c1-c1cc(F)c(NC(N)=O)cc1F)CN(C(C)(C)c1ccc(OC)cc1)CC2 ... ≥ 8.30
Cc1cccc(C(C)C)c1-n1nc2c(c1-c1ccc(NC(N)=O)cc1)CN(C(=O)OC(C)(C)C)CC2 ... 6.30 to 7.30

// next item, pIC50 requested
Ask: Requested field: pIC50. Item: Cc1cccc(OCC(C)C)c1-n1nc2c(c1-c1ccc(NC(N)=O)cc1)CN(c1cc(C(C)(C)C)ccc1F)CC2
Result: ≥ 8.30

###

Entries annotated with measured pIC50
- system: C5aR (Homo sapiens (Human), UniProt P21730)
- assay comment: Chemotaxis assay using U937 cells (C5aR mediated migration)
- recorded conditions: read-out: Mig IC50
pIC50: −log10 of the molar value.

COC(=O)CC(c1ccccc1)N1CCc2nn(-c3c(C)cccc3C)c(-c3cc(F)c(NC(N)=O)cc3F)c2C1 (stereo not shown) ... ≥ 8.30
CCc1cccc(CC)c1-n1nc2c(c1-c1cc(F)c(NC(N)=O)cc1F)CN(C(C)(C)c1cccc(OC)c1)CC2 ... ≥ 8.30
CCC(C)(C)N1CCc2nn(-c3c(C)cccc3OCC(C)C)c(-c3cc(F)c(NC(N)=O)cc3F)c2C1 ... ≥ 8.30

// next item, pIC50 requested
Ask: Requested field: pIC50. Item: Cc1ccc(N2CCc3nn(-c4c(C)cccc4OCC(C)C)c(-c4ccc(NC(N)=O)cc4)c3C2)cc1C(F)(F)F
Result: 7.30 to 8.30

###

- system: C5aR (Homo sapiens (Human), UniProt P21730)
- assay comment: Chemotaxis assay using U937 cells (C5aR mediated migration)
- recorded conditions: read-out: Mig IC50
outcome measure: IC50

CCc1cccc(CC)c1-n1nc2c(c1-c1cc(F)c(NC(N)=O)cc1F)CN(Cc1ccc(C(F)(F)F)cc1Cl)CC2 ... ≤ 5 nM
Cc1cccc(OCC(C)C)c1-n1nc2c(c1-c1ccc(NC(N)=O)c(F)c1)CN(c1nccn3ccnc13)CC2 ... 5 to 50 nM
Cc1cccc(OCC(C)C)c1-n1nc2c(c1-c1ccc(NC(N)=O)cc1)CN(Cc1c(F)cccc1Cl)CC2 ... 5 to 50 nM

Ask: Lab note: need IC50 for Cc1cccc(C)c1-n1nc2c(c1-c1cc(F)c(NC(N)=O)cc1F)CN(c1ncc(C3CC3)cc1Cl)CC2 on C5aR (Homo sapiens (Human), UniProt P21730), anyone have it?
Result: ≤ 5 nM

Ask: Lab note: need IC50 for COCC(c1ccccc1)N1CCc2nn(-c3c(C)cccc3OCC(C)C)c(-c3cc(F)c(NC(N)=O)cc3F)c2C1 (stereo not shown) on C5aR (Homo sapiens (Human), UniProt P21730), anyone have it?
Result: ≤ 5 nM

Ask: Lab note: need IC50 for CCc1cccc(CC)c1-n1nc2c(c1-c1cc(F)c(NC(N)=O)cc1F)CN(Cc1ccc(OC)cc1C(F)(F)F)CC2 on C5aR (Homo sapiens (Human), UniProt P21730), anyone have it?
Result: ≤ 5 nM

Ask: Lab note: need IC50 for Cc1cccc(OCC(C)C)c1-n1nc2c(c1-c1ccc(NC(N)=O)cc1)CN(C(=O)NC(C)(C)C)CC2 on C5aR (Homo sapiens (Human), UniProt P21730), anyone have it?
Result: > 500 nM

###

- system: C5aR (Homo sapiens (Human), UniProt P21730)
- assay comment: Chemotaxis assay using U937 cells (C5aR mediated migration)
- recorded conditions: read-out: Mig IC50
Entries annotated with measured IC50

Consider the reported IC50 for these compounds:
Cc1cccc(OCC(C)C)c1-n1nc2c(c1-c1ccc(NC(N)=O)cc1)CN(C(=O)Cc1ccccc1)CC2 ... > 500 nM
COc1cccc(C)c1-n1nc2c(c1-c1ccc(NC(C)C)cc1)CN(c1ccccc1C)CC2 ... > 500 nM
Cc1cccc(OCC(C)C)c1-n1nc2c(c1-c1ccc(NC(N)=O)cc1)CN(Cc1cc(Cl)ccc1OC(C)C)CC2 ... 5 to 50 nM
NC(=O)Nc1cc(F)c(-c2c3c(nn2-c2c(Cl)cccc2Cl)CCN(c2ncc(Cl)cc2Cl)C3)cc1F ... 5 to 50 nM
CCCC(O)C(C)(C)N1CCc2nn(-c3c(CC)cccc3CC)c(-c3cc(F)c(NC(N)=O)cc3F)c2C1 (centres unmarked) ... ≤ 5 nM

Ask: Requested field: IC50. Item: Cc1cccc(OCC(C)C)c1-n1nc2c(c1-c1ccc(NC(N)=O)cc1)CN(c1cccc(C(F)(F)F)c1)CC2
Result: ≤ 5 nM

Ask: Requested field: IC50. Item: CC(C)c1ccccc1-n1nc2c(c1-c1ccc(NC(N)=O)cc1)CN(C(=O)OC(C)(C)C)CC2
Result: > 500 nM

Ask: Requested field: IC50. Item: Cc1cccc(C)c1-n1nc2c(c1-c1cc(F)c(NC(N)=O)cc1F)CN(c1ncc(C(F)(F)F)cc1Cl)CC2
Result: ≤ 5 nM

###

- system: C5aR (Homo sapiens (Human))
- assay comment: Chemotaxis assay using U937 cells (C5aR mediated migration)
- recorded conditions: read-out: Mig IC50
outcome measure: IC50

Consider the reported IC50 for these compounds:
Cc1cccc(CCC(C)C)c1-n1nc2c(c1-c1ccc(NC(N)=O)cc1)CN(c1ncc(C(F)(F)F)cc1F)CC2 ... 5 to 50 nM
CCc1cccc(CC)c1-n1nc2c(c1-c1cc(F)c(NC(N)=O)cc1F)CN(C(C)(C)CC)CC2 ... ≤ 5 nM
Cc1cccc(OCC(C)C)c1-n1nc2c(c1-c1ccc(NC(N)=O)cc1)CN(Cc1ccc(F)cc1C(F)(F)F)CC2 ... ≤ 5 nM

Ask: Requested field: IC50. Item: CCc1cccc(CC)c1-n1nc2c(c1-c1cc(F)c(NC(N)=O)cc1F)CN(Cc1ccc(C(F)(F)F)cc1C(F)(F)F)C(C)(C)C2
Result: ≤ 5 nM

Ask: Requested field: IC50. Item: NC(=O)Nc1cc(F)c(-c2c3c(nn2-c2ccccc2OCC(F)(F)F)CCN(c2ncc(Cl)cc2Cl)C3)cc1F
Result: ≤ 5 nM

Ask: Requested field: IC50. Item: CC[C@@H](c1ccccc1)N1CCc2nn(-c3c(C)cccc3C)c(-c3ccc(NC(N)=O)cc3F)c2C1
Result: 5 to 50 nM

Ask: Requested field: IC50. Item: CCc1cccc(CC)c1-n1nc2c(c1-c1ccc(NC(N)=O)cc1)CN(Cc1ccc(Cl)cc1C(F)(F)F)CC2
Result: 5 to 50 nM

###

Entries annotated with measured IC50
- system: C5aR (Homo sapiens (Human))
- assay comment: Chemotaxis assay using U937 cells (C5aR mediated migration)
- Assay type: cell-based
- recorded conditions: read-out: Mig IC50

Cc1cccc(OCC(C)C)c1-n1nc2c(c1-c1ccc(NC(N)=O)cc1)CN(Cc1c(Cl)cc(C(F)(F)F)cc1C(F)(F)F)CC2 ... ≤ 5 nM
CC(C)COc1cccc(F)c1-n1nc2c(c1-c1cc(F)c(NC(N)=O)cc1F)CN(c1ncc(C(F)(F)F)cc1F)CC2 ... ≤ 5 nM
Cc1cccc(OCC(C)C)c1-n1nc2c(c1-c1ccc(NC(N)=O)cc1)CN(c1ccccc1C(C)(C)C)CC2 ... ≤ 5 nM
Cc1cccc(CC(C)C)c1-n1nc2c(c1-c1ccc(NC(N)=O)cc1)CN(C(=O)OC(C)(C)C)CC2 ... 50 to 500 nM

Ask: Lab note: need IC50 for Cc1cccc(OCC(C)C)c1-n1nc2c(c1-c1cc(F)c(NC(N)=O)cc1F)CN(c1ncc(F)cc1Cl)CC2 on C5aR (Homo sapiens (Human)), anyone have it?
Result: ≤ 5 nM

Ask: Lab note: need IC50 for Cc1cccc(OCC(C)C)c1-n1nc2c(c1-c1ccc(NC(N)=O)cc1)CN(Cc1ccc(Cl)cc1F)CC2 on C5aR (Homo sapiens (Human)), anyone have it?
Result: ≤ 5 nM
